The measurements presented in this section are drawn from ChEMBL document CHEMBL3124882.

test system: B16-F10; assay: Induction of apoptosis in mouse B16F10 cells assessed as early apoptotic cells at 2 X IC50 after 72 hrs by annexin V-FITC/propidium iodide staining-based FACS analysis (reference value: 3.9 +/- 0.4%); assay type: functional
Sorting guide: entries reporting Activity beneath 40% go in the TRUE pile, the rest go in the FALSE pile.

* CC1(C)CC[C@]2(C(=O)OCc3ccccc3)CC[C@]3(C)C(=CC[C@@H]4[C@@]5(C)C[C@@H](OC(=O)CCCC(=O)O)[C@H](O)C(C)(C)[C@@H]5CC[C@]43C)[C@@H]2C1 | FALSE
* CCCCCC(=O)O[C@@H]1C[C@]2(C)[C@H]3CC=C4[C@@H]5CC(C)(C)CC[C@]5(C(=O)O)CC[C@@]4(C)[C@]3(C)CC[C@H]2C(C)(C)[C@H]1O | FALSE
* CCCC(=O)O[C@@H]1C[C@]2(C)[C@H]3CC=C4[C@@H]5CC(C)(C)CC[C@]5(C(=O)O)CC[C@@]4(C)[C@]3(C)CC[C@H]2C(C)(C)[C@H]1O | FALSE
* CC1(C)CC[C@]2(C(=O)OCc3ccccc3)CC[C@]3(C)C(=CC[C@@H]4[C@@]5(C)C[C@@H](OC(=O)c6ccccc6C(=O)O)[C@H](O)C(C)(C)[C@@H]5CC[C@]43C)[C@@H]2C1 | FALSE
* CC1(C)CC[C@]2(C(=O)O)CC[C@]3(C)C(=CC[C@@H]4[C@@]5(C)CC[C@H](O)C(C)(C)[C@@H]5CC[C@]43C)[C@@H]2C1 [OLEANOLIC_ACID] | TRUE
* CC1(C)CC[C@]2(C(=O)OCc3ccccc3)CC[C@]3(C)C(=CC[C@@H]4[C@@]5(C)CC[C@H](OC(=O)CCC(=O)O)C(C)(C)[C@@H]5CC[C@]43C)[C@@H]2C1 | FALSE
* CC(C)(CC(=O)O)CC(=O)O[C@H]1CC[C@]2(C)[C@H]3CC=C4[C@@H]5CC(C)(C)CC[C@]5(C(=O)OCc5ccccc5)CC[C@@]4(C)[C@]3(C)CC[C@H]2C1(C)C | FALSE
* CCC(=O)O[C@H]1CC[C@]2(C)[C@H]3CC=C4[C@@H]5CC(C)(C)CC[C@]5(C(=O)O)CC[C@@]4(C)[C@]3(C)CC[C@H]2C1(C)C | FALSE
* CC1(C)CC[C@]2(C(=O)OCc3ccccc3)CC[C@]3(C)C(=CC[C@@H]4[C@@]5(C)CC[C@H](OC(=O)CCCC(=O)O)C(C)(C)[C@@H]5CC[C@]43C)[C@@H]2C1 | FALSE
* CC(=O)O[C@@H]1C[C@]2(C)[C@H]3CC=C4[C@@H]5CC(C)(C)CC[C@]5(C(=O)O)CC[C@@]4(C)[C@]3(C)CC[C@H]2C(C)(C)[C@H]1OC(C)=O | TRUE
